FYI, the data here is from patent US9884801B2.

Tested on: PC3 (Prostate)
Experiment: SRB anti-proliferation assay, PC3
Format: cell-based
Conditions: PC3, 48 hours
property-label: IC50 (µg/mL)
# number only, unit µg/mL dropped from output

>>> observed_result("COC1=C(OC)[C@H](OC(C)=O)[C@H](C/C=C(\\C)CC/C=C(\\C)C/C=C/C(C)(C)O)[C@@H](C)C1=O")
22.1
>>> observed_result("COC1=C(OC)[C@H](OC(C)=O)[C@H](C/C=C(\\C)CC/C=C(\\C)CC/C=C(\\C)CO)[C@@H](C)C1=O")
15

Sure, the documented IC50 for COC1=C(OC)[C@H](OC(C)=O)[C@H](C/C=C(\C)CC/C=C(\C)C[C@H](O)C=C(C)C)[C@@H](C)C1=O is 19.7

The recorded IC50 for entry COC1=C(OC)[C@H](OC(C)=O)[C@H](C/C=C(\C)CC/C=C(\C)CCCC(C)CO)[C@@H](C)C1=O (stereo partly shown) equals 11.4
